Recorded DOR EC50 for the following binders
- TARGET: δ-opioid receptor (DOR), Human-ORPD1 (human, UniProt P41143 1-372)
- Sequence (P41143 whole entry, stated change not applied): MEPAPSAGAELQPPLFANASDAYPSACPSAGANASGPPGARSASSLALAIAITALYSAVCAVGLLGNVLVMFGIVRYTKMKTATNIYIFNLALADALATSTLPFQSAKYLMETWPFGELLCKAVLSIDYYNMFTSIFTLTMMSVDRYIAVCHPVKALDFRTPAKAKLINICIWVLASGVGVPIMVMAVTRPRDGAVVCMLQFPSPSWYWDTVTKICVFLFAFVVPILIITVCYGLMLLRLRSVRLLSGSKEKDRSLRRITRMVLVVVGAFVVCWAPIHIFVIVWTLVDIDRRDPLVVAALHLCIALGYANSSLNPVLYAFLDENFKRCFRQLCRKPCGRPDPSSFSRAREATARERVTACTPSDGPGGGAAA
- PROTOCOL: cell-based or functional assay
Numbered stars: 1 amine (or outer) side, 2 acyl side, 3 side chain; on linkers, the order of the positions; unused ones are H or OH. Square brackets hold non-standard residues; d marks the D form. Phe(2,6-Me2,4-CONH2) = Cc1cc(C(N)=O)cc(C)c1C[C@H](N)C(=O)O; Phe(4-CN) = N#Cc1ccc(C[C@H](N)C(=O)O)cc1; Dmt = Cc1cc(O)cc(C)c1C[C@H](N)C(=O)O; NMeβAla = CN(CCC(=O)[*:2])[*:1]; dTic = O=C(O)[C@H]1Cc2ccccc2CN1; β3hF = N[C@H](CC(=O)O)Cc1ccccc1; Aib = CC(C)(N)C(=O)O; Sar = CNCC(=O)O

Observe how each entry below is paired with its result.
H-[Dmt][dR][Phe(4-CN)][Sar]-NH2 (SMILES Cc1cc(O)cc(C)c1C[C@H](N)C(=O)N[C@H](CCCNC(=N)N)C(=O)N[C@@H](Cc1ccc(C#N)cc1)C(=O)N(C)CC(N)=O) [H-DMT-r-Phe(4-CN)-Sar-NH2]: ≤ 1 nM
H-[Dmt][dR]W[NMeβAla]-OH (SMILES Cc1cc(O)cc(C)c1C[C@H](N)C(=O)N[C@H](CCCNC(=N)N)C(=O)N[C@@H](Cc1c[nH]c2ccccc12)C(=O)N(C)CCC(=O)O) [H-DMT-r-W-N(Me)bAla-OH]: ≤ 50 nM
H-[Dmt][dTic]GF[Sar]-NH2 (SMILES Cc1cc(O)cc(C)c1C[C@H](N)C(=O)N1Cc2ccccc2C[C@@H]1C(=O)NCC(=O)N[C@@H](Cc1ccccc1)C(=O)N(C)CC(N)=O) [H-DMT-dTic-G-F-Sar-NH2]: ≤ 1 nM

# input Find the recorded DOR EC50 belonging to H-[Phe(2,6-Me2,4-CONH2)][Aib]G[β3hF][Sar]-NH2 (SMILES Cc1cc(C(N)=O)cc(C)c1C[C@H](N)C(=O)NC(C)(C)C(=O)NCC(=O)N[C@H](CC(=O)N(C)CC(N)=O)Cc1ccccc1) [H-Phe(DMC)-Aib-G-bhF-Sar-NH2] and report it.
# output ≤ 50 nM
